target: soluble TSHR protein (ELISA coat) (human, UniProt P16473 22-260, limits assumed); experiment: ELISA, plate coated with soluble TSHR, antibody at 33.3 nM, anti-human IgG Fc-HRP;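 further: binding of antibody variants to plate-bound soluble TSHR (coated at 2 µg/ml), with bound human IgG detected by HRP conjugate and colour developed using TMB substrate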
readout_type: ELISA (OD 450) at 33.3 nM
Give bare numbers, in OD 450.

TSHB-18 (antibody, V domains shown) VH: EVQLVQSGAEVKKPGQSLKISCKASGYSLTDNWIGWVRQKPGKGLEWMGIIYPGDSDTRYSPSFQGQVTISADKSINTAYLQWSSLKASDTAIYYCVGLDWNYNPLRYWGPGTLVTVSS VL: QSVLTQPPSVSAAPGQKVTISCSGSSTDIGSNYVSWYQQLPGTAPKLLIYDNNKRPSGIPDRFSGSKSGTSATLGITGLQTGDEADYYCGTWDSRLGIAVFGGGTQLTVL ... 0.42
TSHB-22 (antibody, V domains shown) VH: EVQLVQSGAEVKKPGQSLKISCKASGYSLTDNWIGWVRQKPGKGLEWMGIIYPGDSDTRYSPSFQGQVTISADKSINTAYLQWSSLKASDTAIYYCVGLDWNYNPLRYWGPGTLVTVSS VL: QSVLTQPPSVSGAPGQRVTISCSGSSSDIGSNYVSWYQQLPGTAPKLLIYDNNKRPSGVPDRFSGSKSGTSASLAITGLQAEDEADYYCGTWDSRLGIAVFGGGTKLTVL ... 0.447
TSHB-13 (antibody, V domains shown) VH: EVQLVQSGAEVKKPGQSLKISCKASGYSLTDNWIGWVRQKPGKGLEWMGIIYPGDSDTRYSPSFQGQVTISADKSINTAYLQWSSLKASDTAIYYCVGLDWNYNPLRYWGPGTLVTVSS VL: QSVLTQPPSVSAAPGQKVTISCSGSSSDIGSNYVSWYQQLPGTAPKLLIYDNNKRPSGIPDRFSGSKSGTSATLGITGLQTGDEADYYCGTWDSRLGIAVFGGGTQLTVL ... 0.459
TSHB-21 (antibody, V domains shown) VH: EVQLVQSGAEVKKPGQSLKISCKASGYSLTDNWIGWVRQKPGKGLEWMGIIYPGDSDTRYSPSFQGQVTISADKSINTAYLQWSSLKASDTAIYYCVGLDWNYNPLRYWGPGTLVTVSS VL: QSVLTQPPSVSAAPGQKVTISCSGSSSDIGSNYVSWYQQLPGTAPKLLIYDNNKRPSGIPDRFSGSKSGTSATLGITGLQTGDEADYYCATWDSRLGIAVFGGGTQLTVL ... 0.395
TSHB-16 (antibody, V domains shown) VH: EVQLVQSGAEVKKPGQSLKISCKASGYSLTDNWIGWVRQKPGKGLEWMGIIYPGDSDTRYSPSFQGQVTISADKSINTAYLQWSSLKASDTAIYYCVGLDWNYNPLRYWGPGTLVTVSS VL: QSVLTQPPSVSAAPGQKVTISCSGSSSDIGANYVSWYQQLPGTAPKLLIYDNNKRPSGIPDRFSGSKSGTSATLGITGLQTGDEADYYCGTWDSRLGIAVFGGGTQLTVL ... 0.443
TSHB-11 (antibody, V domains shown) VH: EVQLVQSGAEVKKPGESLKISCKASGYSLTDNWIGWVRQKPGKGLEWMGIIYPGDSDTRYSPSFQGQVTISADKSISTAYLQWSSLKASDTAIYYCVGTDWNYNPLRYWGQGTLVTVSS VL: QSVLTQPPSVSAAPGQKVTISCSGSSSDIGSNYVSWYQQFPGTAPKLLIYDNNKRPSAIPDRFSGSKSGTSATLGITGLQTGDEADYYCGTWDSRLGIAVFGGGTQLTVL ... 0.159
TSHB-14 (antibody, V domains shown) VH: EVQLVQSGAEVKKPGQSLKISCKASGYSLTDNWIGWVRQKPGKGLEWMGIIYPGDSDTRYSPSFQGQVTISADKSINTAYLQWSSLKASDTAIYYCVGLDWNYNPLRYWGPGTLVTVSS VL: QSVLTQPPSVSAAPGQKVTISCSGSSSDIGSNYVSWYQQLPGTAPKLLIYDNNKRPSGIPDRFSGSKSGTSATLGITGLQTGDEADYYCGTWDSRWGIAVFGGGTQLTVL ... 0.477
TSHB-12 (antibody, V domains shown) VH: EVQLVQSGAEVKKPGASVKVSCKASGYSLTDNWIGWVRQAPGQGLEWMGIIYPGDSDTRYAQKFQGRVTMTADKSTSTVYMELSSLRSEDTAVYYCVGLDWNYNPLRYWGQGTLVTVSS VL: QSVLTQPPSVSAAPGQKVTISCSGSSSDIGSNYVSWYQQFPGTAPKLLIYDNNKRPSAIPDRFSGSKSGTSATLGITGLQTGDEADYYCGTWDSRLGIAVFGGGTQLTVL ... 0.402
TSHB-9 (antibody, V domains shown) VH: EVQLVQSGAEVKKPGESLKISCKASGYSLTDNWTGWVRQKPGKGLEWMGIIYPGDSDTRYSPSFQGQVTISADKSISTAYLQWSSLKASDTAIYYCVGLDWNYNPLRYWGQGTLVTVSS VL: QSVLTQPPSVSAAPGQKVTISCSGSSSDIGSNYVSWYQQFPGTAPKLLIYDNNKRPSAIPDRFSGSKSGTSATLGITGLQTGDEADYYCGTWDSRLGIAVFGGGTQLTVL ... 0.355

We next turn to a different binder, shown below.
binder TSHB-19 (antibody, V domains shown) VH: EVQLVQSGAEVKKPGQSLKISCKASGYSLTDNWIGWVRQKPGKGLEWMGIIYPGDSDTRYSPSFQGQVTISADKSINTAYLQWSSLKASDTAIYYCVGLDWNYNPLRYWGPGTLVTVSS VL: QSVLTQPPSVSAAPGQKVTISCSGSSSDIGSNWVSWYQQLPGTAPKLLIYDNNKRPSGIPDRFSGSKSGTSATLGITGLQTGDEADYYCGTWDSRLGIAVFGGGTQLTVL , ELISA (OD 450) at 33.3 nM observed: 0.405
